# system_name: PIM-1 kinase (Homo sapiens)
# Sequence (P11309 whole entry): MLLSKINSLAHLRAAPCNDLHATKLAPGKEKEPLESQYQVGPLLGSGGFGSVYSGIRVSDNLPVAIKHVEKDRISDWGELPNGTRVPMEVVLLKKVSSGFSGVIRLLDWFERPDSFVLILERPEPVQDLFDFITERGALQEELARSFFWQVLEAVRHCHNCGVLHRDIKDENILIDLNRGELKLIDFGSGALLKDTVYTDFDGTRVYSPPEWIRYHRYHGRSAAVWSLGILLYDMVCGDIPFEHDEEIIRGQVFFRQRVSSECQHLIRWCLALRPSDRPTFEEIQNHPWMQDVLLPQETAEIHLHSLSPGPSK
# method: HTRF KinEASE kinase assay, PIM-1 inhibitory activity
# Format: biochemical
# test_parameters: HTRF KinEASE kit, 3 duplicate wells; read-out: PIM-1 kinase inhibitory activity (IC50)
pIC50: −log10 of the molar value.
property_name: pIC50

A: CO[C@@H]1[C@H](N(C)C(=O)CCC(=O)NO)C[C@H]2O[C@]1(C)n1c3ccccc3c3c4c(c5c6ccccc6n2c5c31)C(=O)NC4=O
B: CO[C@@H]1[C@H](N(C)C(=O)CSCC(=O)O)C[C@H]2O[C@]1(C)n1c3ccccc3c3c4c(c5c6ccccc6n2c5c31)C(=O)NC4=O
Req: Recorded pIC50 values differ for A and B ; which one is higher? Could you answer with the label of the item you picked?
Resp: A

A: CCCC(=O)N(C)[C@@H]1C[C@H]2O[C@@](C)([C@@H]1OC)n1c3ccccc3c3c4c(c5c6ccccc6n2c5c31)C(=O)NC4=O
B: CO[C@@H]1[C@H](N(C)C(=O)C2CC2)C[C@H]2O[C@]1(C)n1c3ccccc3c3c4c(c5c6ccccc6n2c5c31)C(=O)NC4=O
C: CC(C)(O)[C@H]1CC[C@H](Nc2ccc3ncc(-c4cccc(C(F)(F)F)c4)n3n2)CC1 [TP-3654, reference compound]
Req: Descending sort on pIC50 required. To answer, write out the labels according to the requested order.
Resp: C, A, B
(C: 7.51, A: 7.08, B: 6.35)

----------
# system_name: UniProt P36888
# Sequence (P36888 27-993, species assumed): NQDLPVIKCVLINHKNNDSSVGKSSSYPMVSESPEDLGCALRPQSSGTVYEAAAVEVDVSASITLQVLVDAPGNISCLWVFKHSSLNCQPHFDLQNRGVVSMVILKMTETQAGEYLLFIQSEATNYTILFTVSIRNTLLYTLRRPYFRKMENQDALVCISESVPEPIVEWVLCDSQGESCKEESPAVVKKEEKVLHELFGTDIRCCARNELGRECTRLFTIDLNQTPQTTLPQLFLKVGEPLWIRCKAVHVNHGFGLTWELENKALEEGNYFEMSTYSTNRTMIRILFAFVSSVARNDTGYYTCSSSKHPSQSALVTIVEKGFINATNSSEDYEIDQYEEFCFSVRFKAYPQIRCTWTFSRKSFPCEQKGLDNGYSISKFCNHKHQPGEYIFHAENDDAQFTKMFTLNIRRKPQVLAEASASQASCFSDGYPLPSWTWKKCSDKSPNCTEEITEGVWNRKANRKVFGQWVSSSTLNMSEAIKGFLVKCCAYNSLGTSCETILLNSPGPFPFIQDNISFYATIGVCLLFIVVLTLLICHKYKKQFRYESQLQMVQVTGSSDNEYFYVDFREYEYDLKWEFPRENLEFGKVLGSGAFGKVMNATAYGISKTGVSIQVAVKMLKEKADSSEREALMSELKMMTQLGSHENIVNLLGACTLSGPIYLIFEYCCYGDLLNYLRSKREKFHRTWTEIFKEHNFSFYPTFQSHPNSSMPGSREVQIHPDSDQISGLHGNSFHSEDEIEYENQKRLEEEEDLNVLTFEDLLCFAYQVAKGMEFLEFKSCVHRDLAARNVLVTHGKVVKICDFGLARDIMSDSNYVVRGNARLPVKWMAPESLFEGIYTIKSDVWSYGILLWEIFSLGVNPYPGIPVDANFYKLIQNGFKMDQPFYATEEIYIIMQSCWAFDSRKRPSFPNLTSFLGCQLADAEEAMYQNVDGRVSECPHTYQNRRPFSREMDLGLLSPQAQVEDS
# method: HTRF KinEASE kinase assay, FLT3 (kinase selectivity)
# Format: biochemical
property_name: IC50 (µM)
Number only, in µM; omit the unit.

Req: For the molecule CN[C@@H]1C[C@H]2O[C@@](C)([C@@H]1OC)n1c3ccccc3c3c4c(c5c6ccccc6n2c5c31)C(=O)NC4=O , what IC50 is on record?
Resp: 0.0153

----------
# system_name: PLK1 (Homo sapiens, UniProt P53350)
# Sequence (P53350 whole entry, species assumed): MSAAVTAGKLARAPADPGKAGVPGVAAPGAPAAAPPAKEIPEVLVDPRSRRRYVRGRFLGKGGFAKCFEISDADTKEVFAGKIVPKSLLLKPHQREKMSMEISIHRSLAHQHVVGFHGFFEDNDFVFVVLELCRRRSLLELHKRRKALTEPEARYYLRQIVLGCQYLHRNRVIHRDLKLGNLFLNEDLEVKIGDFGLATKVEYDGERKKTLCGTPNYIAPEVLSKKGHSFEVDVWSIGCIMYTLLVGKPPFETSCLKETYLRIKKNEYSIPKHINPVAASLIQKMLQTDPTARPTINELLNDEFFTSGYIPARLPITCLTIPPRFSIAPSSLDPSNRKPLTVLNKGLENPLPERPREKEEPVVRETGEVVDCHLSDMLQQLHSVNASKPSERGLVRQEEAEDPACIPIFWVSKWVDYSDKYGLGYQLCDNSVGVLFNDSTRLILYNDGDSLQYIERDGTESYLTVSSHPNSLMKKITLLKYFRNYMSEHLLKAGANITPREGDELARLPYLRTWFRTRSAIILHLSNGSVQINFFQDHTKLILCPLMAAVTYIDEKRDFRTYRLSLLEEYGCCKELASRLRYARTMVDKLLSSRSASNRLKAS
# method: HTRF KinEASE kinase assay, PLK1 (kinase selectivity)
# Assay type: biochemical
property_name: IC50 (nM)
Number only, in nM; omit the unit.

Req: For the compound CN[C@@H]1C[C@H]2O[C@@](C)([C@@H]1OC)n1c3ccccc3c3c4c(c5c6ccccc6n2c5c31)C(=O)NC4=O , what IC50 is on record?
Resp: 308

----------
# system_name: UniProtKB P24723
# Sequence (P24723 whole entry): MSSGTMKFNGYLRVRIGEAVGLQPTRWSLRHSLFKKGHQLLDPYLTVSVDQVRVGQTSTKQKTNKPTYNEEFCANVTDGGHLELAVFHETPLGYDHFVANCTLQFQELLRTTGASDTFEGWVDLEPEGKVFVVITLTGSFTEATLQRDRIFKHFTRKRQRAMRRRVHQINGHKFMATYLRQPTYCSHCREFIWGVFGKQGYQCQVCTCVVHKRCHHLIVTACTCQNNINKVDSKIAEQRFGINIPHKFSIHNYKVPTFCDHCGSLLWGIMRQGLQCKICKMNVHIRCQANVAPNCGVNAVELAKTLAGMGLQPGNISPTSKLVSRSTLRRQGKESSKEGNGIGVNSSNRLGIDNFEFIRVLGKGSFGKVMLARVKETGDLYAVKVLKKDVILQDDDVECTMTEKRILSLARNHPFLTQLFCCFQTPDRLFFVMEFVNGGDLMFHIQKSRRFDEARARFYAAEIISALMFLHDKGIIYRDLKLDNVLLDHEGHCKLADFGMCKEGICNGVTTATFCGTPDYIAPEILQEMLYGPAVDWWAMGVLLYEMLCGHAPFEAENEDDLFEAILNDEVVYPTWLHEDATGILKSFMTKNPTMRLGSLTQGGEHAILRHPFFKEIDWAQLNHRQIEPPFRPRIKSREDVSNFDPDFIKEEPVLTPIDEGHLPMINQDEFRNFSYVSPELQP
# method: HTRF KinEASE kinase assay, PKCη (kinase selectivity)
# Assay type: biochemical
# test_parameters: HTRF KinEASE kit, 3 duplicate wells; read-out: PKCη IC50
property_name: pIC50
Kindly note that pIC50 refers to -log10 of the concentration in mol/L and answer with the value alone.

Req: For the compound CO[C@@H]1[C@H](N(C)C(=O)CCC(=O)NO)C[C@H]2O[C@]1(C)n1c3ccccc3c3c4c(c5c6ccccc6n2c5c31)C(=O)NC4=O , what pIC50 is on record?
Resp: 7.14

----------
# system_name: PKCδ (Homo sapiens)
# Sequence (Q05655 whole entry): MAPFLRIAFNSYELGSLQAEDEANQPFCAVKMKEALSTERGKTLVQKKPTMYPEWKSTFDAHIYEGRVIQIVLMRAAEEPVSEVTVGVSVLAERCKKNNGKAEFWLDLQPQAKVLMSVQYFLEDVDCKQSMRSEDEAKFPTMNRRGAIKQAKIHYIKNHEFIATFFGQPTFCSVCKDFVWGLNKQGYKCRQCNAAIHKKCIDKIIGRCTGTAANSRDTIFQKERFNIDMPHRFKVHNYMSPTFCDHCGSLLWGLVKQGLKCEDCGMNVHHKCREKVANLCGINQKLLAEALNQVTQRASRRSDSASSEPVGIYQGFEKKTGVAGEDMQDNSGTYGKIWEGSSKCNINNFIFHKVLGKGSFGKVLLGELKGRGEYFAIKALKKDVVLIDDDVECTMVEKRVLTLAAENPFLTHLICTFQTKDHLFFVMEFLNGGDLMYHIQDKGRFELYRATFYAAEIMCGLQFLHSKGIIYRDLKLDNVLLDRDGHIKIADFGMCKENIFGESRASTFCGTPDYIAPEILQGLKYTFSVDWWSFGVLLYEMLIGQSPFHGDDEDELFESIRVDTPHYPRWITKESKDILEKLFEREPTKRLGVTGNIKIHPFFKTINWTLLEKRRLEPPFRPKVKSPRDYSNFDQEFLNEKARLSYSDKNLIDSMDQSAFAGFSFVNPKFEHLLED
# method: HTRF KinEASE kinase assay, PKCδ (kinase selectivity)
# Type: biochemical
property_name: IC50 (nM)
Number only, in nM; omit the unit.

Req: For the compound CN[C@@H]1C[C@H]2O[C@@](C)([C@@H]1OC)n1c3ccccc3c3c4c(c5c6ccccc6n2c5c31)C(=O)NC4=O , what IC50 is on record?
Resp: 1.4

----------
# system_name: PAK4 (Homo sapiens, UniProt O96013)
# Sequence (O96013 whole entry, species assumed): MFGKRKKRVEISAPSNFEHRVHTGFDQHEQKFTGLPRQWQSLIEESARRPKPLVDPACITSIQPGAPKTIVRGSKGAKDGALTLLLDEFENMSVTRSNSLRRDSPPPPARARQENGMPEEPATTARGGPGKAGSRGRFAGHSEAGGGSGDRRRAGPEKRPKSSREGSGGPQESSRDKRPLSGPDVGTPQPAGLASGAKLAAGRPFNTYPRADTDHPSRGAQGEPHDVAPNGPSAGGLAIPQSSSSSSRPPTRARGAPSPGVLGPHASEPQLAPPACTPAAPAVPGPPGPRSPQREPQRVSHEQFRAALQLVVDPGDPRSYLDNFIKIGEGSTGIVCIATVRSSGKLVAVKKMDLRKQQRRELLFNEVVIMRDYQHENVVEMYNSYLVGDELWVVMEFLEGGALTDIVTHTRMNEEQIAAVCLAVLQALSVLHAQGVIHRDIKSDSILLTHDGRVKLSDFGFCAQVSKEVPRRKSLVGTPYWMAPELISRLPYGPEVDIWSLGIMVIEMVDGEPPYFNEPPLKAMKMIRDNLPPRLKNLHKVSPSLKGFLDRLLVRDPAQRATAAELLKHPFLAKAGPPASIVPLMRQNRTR
# method: HTRF KinEASE kinase assay, PAK4 (kinase selectivity)
# Type: biochemical
# Description: Inhibitory activities against PIM-1, TRKA, TRKB, FLT3, PKCδ, PKCε, PKCη, PAK4, PLK1, ROCK2, and IKKβ kinases were all determined using an HTRF®KinEASE™ kinase assay kit based on a time-resolved fluorescence technology. 7-carbonylstaurosporine (7OSTA) and TP-3654 were used as positive controls, and 3 duplicate wells were set in parallel. […] A signal ratio was calculated as F2/F1×10000, and then an IC50 value was calculated using Graphpad Prism 8 software.
property_name: IC50 (nM)
Number only, in nM; omit the unit.

Req: For the compound CN[C@@H]1C[C@H]2O[C@@](C)([C@@H]1OC)n1c3ccccc3c3c4c(c5c6ccccc6n2c5c31)C(=O)NC4=O , what IC50 is on record?
Resp: 37

----------
In this section we review reported pIC50 values for a set of molecules.
# system_name: UniProt:P11309
# method: HTRF KinEASE kinase assay, PIM-1 inhibitory activity
# Assay type: biochemical
# test_parameters: HTRF KinEASE kit, 3 duplicate wells; read-out: PIM-1 kinase inhibitory activity (IC50)
pIC50: −log10 of the molar value.

Illustrative cases are given below, each with its answer.
> print(dat)
                               query.smiles  property.name  measurement
1  CO[C@@H]1[C@H](N(C)C(=O)c2ccc3c(c2)OCO3)C[C@H]2O[C@]1(C)n1c3ccccc3c3c4c(c5c6ccccc6n2c5c31)C(=O)NC4=O          pIC50       < 6.00
2  CCCCC(=O)N(C)[C@@H]1C[C@H]2O[C@@](C)([C@@H]1OC)n1c3ccccc3c3c4c(c5c6ccccc6n2c5c31)C(=O)NC4=O          pIC50       < 6.00

Turning now to a further record.
Req: For the molecule CCCCCC(=O)N(C)[C@@H]1C[C@H]2O[C@@](C)([C@@H]1OC)n1c3ccccc3c3c4c(c5c6ccccc6n2c5c31)C(=O)NC4=O , what pIC50 is on record?
Resp: < 6.00
